Values compiled from the supplement of paper PMC13380429.

System: Vero E6 infected with SARS-CoV-2
Test: SARS-CoV-2 infection rate relative to infected DMSO; higher = more infection, active = 60 or less
Conditions: 24 h
measured_endpoint: SARS-CoV-2 infection rate (%)
Write it as a number; the unit % goes unstated.

Return reported SARS-CoV-2 infection rate; argument: CC(C)(C)CC(=O)Nc1c(F)cc(C(=O)/N=c2\sccn2COP(=O)(O)O)cc1F (10 µM)
93.5

Return reported SARS-CoV-2 infection rate; argument: COc1ccc2cccc(CCNC(C)=O)c2c1 [agomelatine] (10 µM)
114

Return reported SARS-CoV-2 infection rate; argument: O=C(O)Cn1nnc(-c2cc(N3CCC(Oc4cc(F)ccc4Br)CC3)no2)n1 (10 µM)
104

Return reported SARS-CoV-2 infection rate; argument: Clc1cc(Cl)c(OCC#CI)cc1Cl [haloprogin] (10 µM)
32

Return reported SARS-CoV-2 infection rate; argument: CCCCCCNC(=O)n1cc(F)c(=O)[nH]c1=O [Carmofur] (0.833333 µM)
106

Return reported SARS-CoV-2 infection rate; argument: c1nc2c(NC3CCCCC3)nc(Nc3ccc(N4CCOCC4)cc3)nc2[nH]1 [reversine] (10 µM)
106

Return reported SARS-CoV-2 infection rate; argument: O=C(c1c2ccccc2cc2ccccc12)N1CCC(N2CCC[C@@H](C(=O)N3CCOCC3)C2)CC1 (10 µM)
93.5

Return reported SARS-CoV-2 infection rate; argument: Cc1c(C)c(NCC(=O)N(C)C2CCN(Cc3ccc(C(N)=O)cc3)CC2)c(C)c(C)c1N (10 µM)
91

Return reported SARS-CoV-2 infection rate; argument: COc1ccc(Nc2ncnc3ccc(OC)cc23)cc1 (10 µM)
122

Return reported SARS-CoV-2 infection rate; argument: CCN(CC)CCOC(=O)c1ccc(N)cc1 [procaine] (10 µM)
115

Return reported SARS-CoV-2 infection rate; argument: NC1=N[C@@](c2cccc(-c3cncnc3)c2)(c2ccnc(C(F)F)c2)c2cccc(F)c21 (10 µM)
92.5

Return reported SARS-CoV-2 infection rate; argument: NC(=O)c1[nH]cnc1O (10 µM)
107

Return reported SARS-CoV-2 infection rate; argument: Nc1nnc(Sc2ncc([N+](=O)[O-])s2)s1 (0.833333 µM)
90.5

Return reported SARS-CoV-2 infection rate; argument: CCOc1cc(N2CCC(O)CC2)ccc1Nc1ncc2c(n1)N(C)c1ccccc1C(=O)N2C (0.833333 µM)
114

Return reported SARS-CoV-2 infection rate; argument: CCOc1cc(C(=O)Nc2ccc(Cl)c(-c3nc4ccccc4[nH]3)c2)cc(OCC)c1OCC (10 µM)
100

Return reported SARS-CoV-2 infection rate; argument: O=C(Nc1ccc(S(=O)(=O)C(F)(F)F)cc1)C1=CCN(c2ncccc2C(F)(F)F)CC1 (10 µM)
108

Return reported SARS-CoV-2 infection rate; argument: C[C@H]1C[C@@H]2[C@H]([C@@H](O)C[C@@]3(C)[C@H]2CC[C@]3(O)C(=O)COC(=O)CCC(=O)O)[C@@]2(C)C=CC(=O)C=C12 [methylprednisolone-sodium-succinate] (10 µM)
102

Return reported SARS-CoV-2 infection rate; argument: CC1=CC[C@@H](C(C)(C)O)C[C@@H]1O [sobrepin] (10 µM)
114

Return reported SARS-CoV-2 infection rate; argument: CC(C)[C@]12O[C@H]1[C@@H]1O[C@]13[C@]1(O[C@H]1C[C@H]1C4=C(CC[C@@]13C)C(=O)OC4)[C@@H]2O [triptolide] (10 µM)
89

Return reported SARS-CoV-2 infection rate; argument: CN(CC[C@@H](Oc1ccc(-c2ccccc2)cc1)c1ccc(F)cc1)CC(=O)O (10 µM)
108

Return reported SARS-CoV-2 infection rate; argument: O=C1[C@H](Cc2ccc(O)cc2)N2C(=O)CCN(C(=O)NCc3ccccc3)[C@H]2CN1Cc1cccc2ccccc12 (10 µM)
93

Return reported SARS-CoV-2 infection rate; argument: CN(C(=O)CN1C(=O)COc2cc(Cl)c(Cl)cc21)[C@@H](CN1CCCC1)c1ccc(-c2cccc(C(N)=O)c2)cc1 (0.833333 µM)
104

Return reported SARS-CoV-2 infection rate; argument: C=C[C@@]1(C)CC(=O)[C@]2(O)[C@@]3(C)[C@@H](O)CCC(C)(C)[C@@H]3[C@H](O)[C@H](OC(C)=O)[C@@]2(C)O1 [colforsin] (10 µM)
83

Return reported SARS-CoV-2 infection rate; argument: Cc1cc(NC(=O)Nc2ccc(F)c(F)c2)n(-c2ccccc2)n1 (10 µM)
102

Return reported SARS-CoV-2 infection rate; argument: CN(C)CCOc1cc(-c2cn[nH]c2)ccc1NC(=O)C1COc2ccccc2O1 (configuration not stated) (0.833333 µM)
76.5

Return reported SARS-CoV-2 infection rate; argument: Nc1nccc(Oc2ccc(NC(=O)c3c[nH]cc(-c4ccc(F)cc4)c3=O)cc2F)c1Cl [metatinib] (10 µM)
102

Return reported SARS-CoV-2 infection rate; argument: Oc1ccc(-c2nc3cc(O)cc(Br)c3o2)cc1 (10 µM)
94.5

Return reported SARS-CoV-2 infection rate; argument: Oc1cc(O)c2c(c1)O[C@H](c1ccc(O)c(O)c1)[C@H](O)[C@H]2c1c(O)cc(O)c2c1O[C@H](c1ccc(O)c(O)c1)[C@H](O)C2 [procyanidin-B-2] (10 µM)
106

Return reported SARS-CoV-2 infection rate; argument: C=CC(C)(C)c1cc(/C=C/C(=O)c2ccc(O)cc2)c(OC)cc1O [licochalcone-A] (10 µM)
114

Return reported SARS-CoV-2 infection rate; argument: COc1cc2c(cc1OC(C)C)[C@H](c1ccc(Cl)cc1)N(c1ccc(N(C)C[C@H]3CC[C@H](N4CCN(C)C(=O)C4)CC3)cc1)C(=O)C2 (0.833333 µM)
93.5

Return reported SARS-CoV-2 infection rate; argument: Cn1nnc2c(C(N)=O)ncn2c1=O [temozolomide] (10 µM)
114

Return reported SARS-CoV-2 infection rate; argument: CN1CCN(CC/C=C2/c3ccccc3Sc3ccc(S(=O)(=O)N(C)C)cc32)CC1 [thiothixene] (10 µM)
80.5
